Give folding stability dG for every item shown.
B1: EHEE_rd4_0726 (parent)
chain: DIEITTNGEEDAKRVIKELQKRNLEYHIEVHGNQWVIKVR

variants of: B1; test: folding stability dG (cDNA display proteolysis); higher = more stable; settings: PBS, room temperature
Numbers only, in kcal/mol.

# alteration, unit_abbrev, measured
measured = [
    ("R22E", "kcal/mol", 1.49),
    ("H27S", "kcal/mol", 3.05),
    ("K21R", "kcal/mol", 2.75),
]

Please give folding stability dG, item by item, for the list that follows.
1. Q34I
2. E18N
3. V39Y
4. R40W
5. I28T

*A*
[2.87, 1.86, 2.08, 2.3, 1.09]
